test: ACEA_ER_AUC_viability: ACEA Biosciences xCELLigence Real-Time Cell Analysis on Estrogen Receptor Agonism for Viability (AID 2283782);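 note: continuous compound exposure with impedance area under curve over 80 h; hit means loss of impedance signal meaning reduced cell growth or viability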
Records with an inconclusive call do not appear. Calls of active or inactive are those of the source. Rule for the calls: active = hit-call score of the fitted dose curve at least 0.9, where 1 is the maximum; inconclusive = response in the unintended direction; inactive = score below 0.9.
Give your call using only these classes: 1 (yes) for active, 0 (no) for inactive

>  <Compound>
CCCC1CCC(=O)O1 (stereo not given)

>  <Class Label>
0 (no)

$$$$
>  <Compound>
NCCCN1CCOCC1

>  <Class Label>
0 (no)

$$$$
>  <Compound>
NCCOCCO

>  <Class Label>
0 (no)

$$$$

Prompt: Hi, do you know how O=C(Cl)c1cccc(C(=O)Cl)c1 came out in this test?
Response: 0 (no)

----------
assay: ATG_CMV_CIS: Attagene CIS-FACTORIAL HepG2 Assay for human CMV (Internal Marker) (AID 2282928); details: HepG2 CMV promoter reporter, transcription factor profiling; actives raise or lower the signal;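 note: endpoint acts as a background internal control marker rather than a target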
Calls of active or inactive are those of the source. How the source made its calls: active means hit-call score of the fitted dose curve at least 0.9, where 1 is the maximum; inactive means score below 0.9.
Choose one outcome from this list and give only that: yes (1) for active, no (0) for inactive

Known results for compounds:
>  <Compound>
CCCCCCCCCOC(C)=O

>  <Class Label>
no (0)

$$$$
>  <Compound>
CC1(C)[C@@H]2CC[C@@]1(C)[C@H](O)C2

>  <Class Label>
no (0)

$$$$
>  <Compound>
C[C@H]1C[C@H]2[C@@H]3CCC4=CC(=O)C=C[C@]4(C)[C@@]3(F)[C@@H](O)C[C@]2(C)[C@@]1(O)C(=O)COP(=O)(O)O

>  <Class Label>
no (0)

$$$$

Prompt: In this assay, the call recorded for CCCCCCCCCCCCCCCC(=O)O was what?
Response: no (0)

Prompt: Per the records of this test, what outcome belongs to CCCCCCCCCCCCOCCO ?
Response: yes (1)

Prompt: Query: recorded result category for CCc1c(C)cc(N)c(CC)c1N in this test
Response: no (0)

Prompt: Field: outcome | Entry: OCCN1CCNCC1
Response: no (0)

Prompt: How did this test come out for CC(=O)Nc1ccccc1O ?
Response: no (0)

Prompt: Hi, do you know how COC(=O)Cc1cccc2ccccc12 came out in this test?
Response: no (0)

Prompt: Hi, do you know how Cc1ccc(C(=O)c2cc(O)c(O)c([N+](=O)[O-])c2)cc1 came out in this test?
Response: yes (1)

Prompt: // outcome(item) with item = Nc1cc([N+](=O)[O-])ccc1Cl
Response: no (0)

Prompt: Can you look up the reported call for CCC(C)CCCC(C)(C)O (stereo not drawn) for me?
Response: no (0)

Prompt: # outcome recorded in this test, key = CCCCCCCCCCCCCC(=O)O
Response: no (0)

Prompt: Write down the call the test reported for this compound. Item: Fc1c(F)c(F)c(Br)c(F)c1F
Response: no (0)

Prompt: Per the assay record, what outcome was assigned to CC1(C)CCC(C)(C)c2cc(C(=O)Nc3ccc(C(=O)O)cc3)ccc21 ?
Response: no (0)

Prompt: Each compound tested received a call. Report the one for O=C(O)COCCN1CCN(C(c2ccccc2)c2ccc(Cl)cc2)CC1 (stereo not drawn) .
Response: no (0)

Prompt: Just curious, what result did CC(C)[C@@H]1CC[C@@H](C)CC1=O get here?
Response: no (0)

Prompt: Given CCO[Si](CCCS)(OCC)OCC , state the outcome it received in this test.
Response: no (0)

Prompt: What did the test return for O=c1[nH]nnc2ccccc12 ?
Response: no (0)

Prompt: Identify the outcome logged in this assay for the compound shown: CCCCCOC(=O)CCC
Response: no (0)
